Substrate: ICOS (Homo sapiens (Human)) (UniProt Q9Y6W8)
Sequence (Q9Y6W8 21-199 limits assumed): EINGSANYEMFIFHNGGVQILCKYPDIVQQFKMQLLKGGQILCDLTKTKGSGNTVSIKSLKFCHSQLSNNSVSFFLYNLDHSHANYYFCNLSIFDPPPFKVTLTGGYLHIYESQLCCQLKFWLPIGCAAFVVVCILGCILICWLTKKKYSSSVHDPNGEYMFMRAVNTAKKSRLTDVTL
Assay: flow cytometry, transfected cells
Measured MFI ratio to WT (ΔWT), listed per entry.
endpoint-label: MFI ratio to WT (ΔWT) (fold)

1) ICOSL-Fc N52R/N57W/Q100K (Fc fusion) DTQEKEVRAMVGSDVELSCACPEGSRFDLNDVYVYWQTSESKTVVTYHIPQRSSLEWVDSRYRNRALMSPAGMLRGDFSLRLFNVTPQDEQKFHCLVLSKSLGFQEVLSVEVTLHVAANFSVPVVSAPHSPSQDELTFTCTSINGYPRPNVYWINKTDNSLLDQALQNDTVFLNMRGLYDVVSVLRIARTPSVNIGCCIENVLLQQNLTVGSQTGNDIGERDKITENPVSTGEKNAAT = 1.65
2) ICOSL-Fc N52Q/N57F (Fc fusion) DTQEKEVRAMVGSDVELSCACPEGSRFDLNDVYVYWQTSESKTVVTYHIPQQSSLEFVDSRYRNRALMSPAGMLRGDFSLRLFNVTPQDEQKFHCLVLSQSLGFQEVLSVEVTLHVAANFSVPVVSAPHSPSQDELTFTCTSINGYPRPNVYWINKTDNSLLDQALQNDTVFLNMRGLYDVVSVLRIARTPSVNIGCCIENVLLQQNLTVGSQTGNDIGERDKITENPVSTGEKNAAT = 0.91
3) ICOSL-Fc N52R/N57L/Q100A (Fc fusion) DTQEKEVRAMVGSDVELSCACPEGSRFDLNDVYVYWQTSESKTVVTYHIPQRSSLELVDSRYRNRALMSPAGMLRGDFSLRLFNVTPQDEQKFHCLVLSASLGFQEVLSVEVTLHVAANFSVPVVSAPHSPSQDELTFTCTSINGYPRPNVYWINKTDNSLLDQALQNDTVFLNMRGLYDVVSVLRIARTPSVNIGCCIENVLLQQNLTVGSQTGNDIGERDKITENPVSTGEKNAAT = 1.45
4) ICOSL-Fc N52R/N57F/Q100T (Fc fusion) DTQEKEVRAMVGSDVELSCACPEGSRFDLNDVYVYWQTSESKTVVTYHIPQRSSLEFVDSRYRNRALMSPAGMLRGDFSLRLFNVTPQDEQKFHCLVLSTSLGFQEVLSVEVTLHVAANFSVPVVSAPHSPSQDELTFTCTSINGYPRPNVYWINKTDNSLLDQALQNDTVFLNMRGLYDVVSVLRIARTPSVNIGCCIENVLLQQNLTVGSQTGNDIGERDKITENPVSTGEKNAAT = 1.27
5) ICOSL-Fc N52M/N57W/Q100P (Fc fusion) DTQEKEVRAMVGSDVELSCACPEGSRFDLNDVYVYWQTSESKTVVTYHIPQMSSLEWVDSRYRNRALMSPAGMLRGDFSLRLFNVTPQDEQKFHCLVLSPSLGFQEVLSVEVTLHVAANFSVPVVSAPHSPSQDELTFTCTSINGYPRPNVYWINKTDNSLLDQALQNDTVFLNMRGLYDVVSVLRIARTPSVNIGCCIENVLLQQNLTVGSQTGNDIGERDKITENPVSTGEKNAAT = 1.52
